# Tested on: CDK9
# STATED_CONDITIONS: concentration: 1 μM, replicates: in singlicate; n = 1;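 also: KINOMEscan kinase panel screen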
RECORDED_ENDPOINT: %Inh (%)
Provide only the numeric value, understood in %.

Cn1cc(-c2cnc(N)c3c(-c4ccc5c(c4)CCN5C(=O)Cc4ccccc4)csc23)cn1; 0
Cc1ccc(Nc2ccnc(Nc3ccc(C)c(F)c3)n2)cc1O.Cl; 0

### Prompt # return %Inh for "Cc1cc(-c2c(-c3ccc(F)cc3)ncn2CCCN2CCOCC2)nc(N)n1" , test system: CDK9
### Response 0

### Prompt Fill in %Inh for "O=C(Nc1n[nH]c2nc(-c3ccccc3)ccc12)C1CC1" tested with CDK9.
### Response 0

* * *

# Test system: EIF2AK1
# STATED_CONDITIONS: concentration: 1 μM, replicates: in singlicate; n = 1
RECORDED_ENDPOINT: %Inh (%)
Write the number in % without appending the unit.

Cc1cccc(Nc2nc(NCCN)ncc2C(N)=O)c1; 0
CN(C)c1ncnc2nc[nH]c12; 0
O=C(Nc1n[nH]c2cc(-c3cccs3)ccc12)C1CC1; 7
Cc1ccc(NC(=O)c2cccc(N3CCCCC3)c2)cc1-c1ccc(C(=O)NCC2CC2)cc1; 8
COc1cc(Nc2nccc(N3CCC(NS(=O)(=O)c4ccc(NC(C)=O)cc4)CC3)n2)cc(OC)c1OC; 7

### Prompt Give the value of %Inh reported for the following: "CCNc1nccc(-c2c(-c3ccc(F)cc3)ncn2C2CCN(C)CC2)n1"
### Response 0

### Prompt Identify %Inh associated with the compound CC(C)NCC(Cc1ccccc1)NC(=O)c1cc(Br)c(-c2ccnc3[nH]ccc23)s1.Cl.Cl (stereo not drawn)
### Response 0

### Prompt Return the recorded %Inh value; entry: COc1cc(Nc2nccc(N3CCC(NC(=O)Nc4ccc5c(c4)OCO5)C3)n2)cc(OC)c1OC (stereo not drawn)
### Response 0

### Prompt Write down %Inh measured for item "O=C(O)C(F)(F)F.O=c1[nH]ccc2nc(N[C@@H]3CCNC3)nc(Nc3ccc4c(c3)S(=O)(=O)CC4)c12"
### Response 4

### Prompt Identify %Inh associated with the compound "Cc1cc(-c2c(-c3ccc(F)cc3)ncn2CCCN2CCOCC2)nc(N)n1"
### Response 0

* * *

# Tested on: CSK
# STATED_CONDITIONS: concentration: 1 μM, replicates: in singlicate; n = 1
RECORDED_ENDPOINT: %Inh (%)
Respond with the bare value in %.

NCCC(NC(=O)c1cc(Br)c(-c2ccnc3[nH]ccc23)s1)c1ccccc1.O=C(O)C(F)(F)F.O=C(O)C(F)(F)F (stereo not shown) [GSK1307810]; 0

### Prompt Please list %Inh recorded for the molecule Cc1ccc(NC(=O)c2ccc(Cl)c(Cl)c2)cc1-c1ccc(C(=O)Nc2ccncc2)cc1 [GSK1398460]
### Response 1

### Prompt Tell me measured %Inh for Nc1cccc(-c2ccc3c(N)n[nH]c3c2)c1 [GSK2193613] please.
### Response 0

### Prompt Respond only with %Inh recorded for Nc1ncc(-c2cn[nH]c2)c2scc(-c3ccc4c(c3)CCN4C(=O)Cc3ccccc3)c12 [GSK2593067]
### Response 68

* * *

Recorded %Inh by entry
# Tested on: CDKL3
# STATED_CONDITIONS: concentration: 1 μM, replicates: in singlicate; n = 1
The figure you give is taken to be in %; do not add the unit.

CSc1ccc(NC2=C(c3ccc(Cl)cc3)C(=O)NC2=O)cc1; 0
Cl.N#CCc1ccc(Nc2nccc(Nc3ccc(Oc4ccccc4)cc3)n2)cc1; 0

### Prompt Recall the reported %Inh of "CN(C)CCOc1ccc(-c2cc(-c3ccc(Cl)c(O)c3)c(-c3ccncc3)[nH]2)cc1.Cl.Cl" when tested on CDKL3.
### Response 0

### Prompt Look up and report measured %Inh (CDKL3) for the following molecule: "Nc1cccc(-c2ccc3c(N)n[nH]c3c2)c1"
### Response 0

### Prompt // fetch %Inh for "CC(C)(C)c1ccc(C(=O)Nc2cn3cc(-n4ccnc4)ccc3n2)cc1" ; system: CDKL3
### Response 18

* * *

# System: ROS1
# STATED_CONDITIONS: concentration: 1 μM, replicates: in singlicate; n = 1
RECORDED_ENDPOINT: %Inh

Some compounds with known %Inh results, for comparison:
COC(=O)Nc1nc2ccc(Oc3ccc(NC(=O)Nc4cc(C(F)(F)F)ccc4F)cc3)cc2[nH]1.Cl [GW654607]; 6%
CN1CCN(Cc2ccc(NC(=O)Nc3ccc(N(C)c4ccnc(Nc5ccc(CS(C)(=O)=O)cc5)n4)cc3)cc2)CC1.Cl [GW827654]; 40%
COc1cc(Nc2ccnc3cc(-c4ccncc4)ccc23)cc(OC)c1OC.Cl [GW494610]; 16%

# next compound below
### Prompt # return recorded %Inh for entry COc1cccc(C2=C(Nc3cccc(O)c3)C(=O)NC2=O)c1 [SB-390771]
### Response 0%

* * *

# System: ERK4
# Construct: gene MAPK4
# STATED_CONDITIONS: concentration: 1 μM, replicates: in singlicate; n = 1
Parameter: %Inh. Scope: all listed entries.
Write the answer as a number in %, unit excluded.

CN(C)CCNS(=O)(=O)c1ccc(-c2ccnc3[nH]ccc23)cc1; 10
c1ccc(Oc2ccc(Nc3ccnc4cc(-c5ccc(CN6CCCCC6)o5)ccc34)cc2)nc1; 0

### Prompt Give me measured %Inh, please, for this compound: "Cc1cccc(Nc2nc(N[C@H]3CCCC[C@H]3N)ncc2C(N)=O)c1.Cl"
### Response 49

### Prompt Give the measured %Inh for "CN(c1ccc(F)c(NC(=O)c2cccc(OC(C)(C)C#N)c2Cl)c1)c1ccc2nc(NC(=O)C3CC3)sc2n1"
### Response 0

* * *

# System: DDR1
# STATED_CONDITIONS: concentration: 1 μM, replicates: in singlicate; n = 1
RECORDED_ENDPOINT: %Inh (%)
Form entry: value (%) — number only.

In the examples that follow, each entry is paired with its recorded %Inh.
Cl.Cl.NC(CNC(=O)c1cc(Br)c(-c2ccnc3[nH]ccc23)s1)c1ccccc1 (stereo not shown); 0
N#Cc1cnc2cc(-c3cnc(CNCCN4CCOCC4)s3)ccc2c1Nc1ccc(Oc2ccccc2)cc1; 21
Cl.O=C(Nc1ccc(Oc2ccc3[nH]c(NC(=O)c4ccco4)nc3c2)cc1)Nc1cc(C(F)(F)F)ccc1F; 100

### Prompt Please report the measured %Inh for "Cc1ccc(Nc2ccnc(Nc3ccc(C)c(F)c3)n2)cc1O.Cl"
### Response 10

* * *

Quick reference for %Inh among some compounds
# Test system: CHEK1
# STATED_CONDITIONS: concentration: 1 μM, replicates: in singlicate; n = 1
Express your answer in %, writing the number without its unit.

The examples below pair each entry with its known result.
COc1cc(Nc2ccnc3cc(-c4ccncc4)ccc23)cc(OC)c1OC.Cl; 0
Cl.O=C(Nc1ccc(Oc2ccc3[nH]c(NC(=O)c4ccco4)nc3c2)cc1)Nc1cc(C(F)(F)F)ccc1F; 21

### Prompt For the compound "Cc1cccc(Nc2nc(NCCN)ncc2C(N)=O)c1" , give its measured %Inh value.
### Response 82

### Prompt # return recorded %Inh for entry "CCNC(=O)/C=C/c1n[nH]c2cc(Sc3ccccc3C(=O)NC)ccc12"
### Response 0

### Prompt Provide one value: measured %Inh of "CC(=O)Nc1cn2nc(Oc3cccc(NC(=O)c4cccc(C(F)(F)F)c4)c3)ccc2n1"
### Response 0

### Prompt Identify %Inh associated with the compound NCCC(NC(=O)c1cc(Br)c(-c2ccnc3[nH]ccc23)s1)c1ccccc1.O=C(O)C(F)(F)F.O=C(O)C(F)(F)F (centres unmarked)
### Response 0

### Prompt Indicate the recorded %Inh value for this compound: "CN(c1ccc(NC(=O)N2CCN(CCCN3CCOCC3)CC2)cc1)c1ccnc(Nc2ccc(CS(C)(=O)=O)cc2)n1.Cl"
### Response 0

### Prompt For the compound Cl.Cl.NC(CNC(=O)c1cc(Br)c(-c2ccnc3[nH]ccc23)s1)c1ccccc1 (centres unmarked) , report %Inh.
### Response 0

### Prompt Indicate the recorded %Inh value for this compound: Cc1ccc(-c2ccc3occ(-c4ccc(S(C)=O)cc4)c3c2)nn1 (centres unmarked)
### Response 0

### Prompt Quick one: give measured %Inh for "COc1cccc2c(-c3ccncc3)c(-c3ccc(F)cc3)nn12"
### Response 0

### Prompt Give reported %Inh value for "O=C(Nc1n[nH]c2cc(-c3cccs3)ccc12)C1CC1"
### Response 0

### Prompt Check the records and state %Inh for "Nc1ncc(-c2cn[nH]c2)c2scc(-c3ccc4c(c3)CCN4C(=O)Cc3ccccc3)c12"
### Response 0

### Prompt Respond only with %Inh recorded for "COc1cccc(C2=C(Nc3cccc(O)c3)C(=O)NC2=O)c1"
### Response 0

### Prompt State its %Inh: "Cn1cc(-c2ccc3c(c2)CCN3C(=O)Cc2cc(F)cc(C(F)(F)F)c2)c2c(N)ncnc21"
### Response 8

### Prompt Give the reported %Inh for this compound. "COC(=O)Nc1nc2ccc(Oc3ccc(NC(=O)Nc4cc(C(F)(F)F)ccc4F)cc3)cc2[nH]1.Cl"
### Response 0

### Prompt In one line, give reported %Inh of the entry "COc1cccc(CC(=O)N2CCc3cc(-c4cn(C)c5ncnc(N)c45)ccc32)c1" .
### Response 0

### Prompt Return value of %Inh for input "Cc1nn2c(=O)cc(N3CCO[C@H](C)C3)nc2n1Cc1cccc(Cl)c1Cl" , no commentary.
### Response 26

Numbers sourced from paper PMC5540273.
